- method-notes: inhibitors of E-selectin induction by TNFa, primary screen, imaging, HUVEC, immunofluorescence, MLSMR starter and 10KST1 sets (AID 487);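 note: 100% = median nuclei count of all wells on the same plate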
- condition-set: HUVEC TNFalpha-induced E-selectin immunofluorescence imaging, at 2 µM; measured here: cell number, toxicity
Answer each item with its documented nuclei count.
Answers are plain numbers, in %.

Observe how each entry below is paired with its result.
{"columns": ["compound", "unit-of-measure", "nuclei count"],
 "data": [
  ["C=CCSC1=C(C#N)C(c2ccccc2OCC)CC(=O)N1 (stereo not given)", "%", 105],
  ["Cc1ccc2c(C)nc(NC3=NCN(C(C)C)CN3)nc2c1", "%", 125],
  ["CCCNS(=O)(=O)c1ccc(OCC(=O)NCc2ccc3c(c2)OCO3)cc1", "%", 106],
  ["CCCCC(=O)NC(Nc1ccc(C)cn1)(C(=O)OCC)C(F)(F)F (stereo not given)", "%", 156],
  ["COC(=O)c1[nH]c(C)c(/C(O)=C2\\C(=O)C(=O)N(CCN3CCOCC3)C2c2ccccc2OC)c1C (stereo not given)", "%", 168]
]}

Batch lookup, nuclei count per entry.
1. COc1ccccc1-c1c(C)oc2c(CN3CCN(C)CC3)c(O)ccc2c1=O
2. CCOC(=O)N1CCN(C(=O)COc2ccc(S(=O)(=O)NC(C)C)cc2)CC1
3. CC1=C(C(=O)Nc2ccccc2)C(c2ccccn2)n2nc(CCCO)nc2N1 (stereo not given)
4. COC(=O)c1c(NC(=O)CSc2nnc(-c3cccnc3)n2Cc2ccco2)sc(C)c1C
5. CCCn1c(SCC#N)nc2c(c1=O)C1(CCCC1)Cc1ccccc1-2

Reply:
1. 150
2. 115
3. 116
4. 104
5. 185

====

- method-notes: inhibitors of mutant huntingtin aggregation, primary screen, imaging, exon1htt(103Q)mCFP cells, high-content imaging (AID 483);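 note: compound exposure lasted 3 days before fixation; percent of the per-plate median nuclei count of sample wells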
- condition-set: exon1htt(103Q)mCFP cell line, aggregate imaging, at 2 µM; measured here: cell count, toxicity
measured-metric: nuclei count (%)
One number for each entry, in %.

Example entries and their recorded answers appear below.
{"columns": ["line-notation", "unit-of-measure", "result-number"],
 "data": [
  ["c1coc(Cn2nnnc2CN2CCN(C3CCCC3)CC2)c1", "%", 96.9],
  ["O=C(CCS(=O)(=O)c1cccc2nonc12)Nc1cccc2c1CCCC2", "%", 109],
  ["COc1cc(OC)cc(-c2nc(N)n[nH]2)c1", "%", 105]
]}

# per-item lookup of nuclei count; items listed below
1. Cc1ccc(Cn2nnnc2CN2CCC(O)(c3ccccc3F)CC2)cc1
2. Cc1ccc(CCC(=O)Nc2ccc(S(N)(=O)=O)cc2)o1
3. CN1CCc2nc(SCCOc3ccccc3)c(C#N)cc2C1

Reply:
1. 96.1
2. 111
3. 93.7

====

- assay-system: Voltage-gated potassium channel subunit beta-2 (Rattus norvegicus)
- method-notes: KvBeta positive modulators, primary screen, biochemical, NADPH fluorescence (AID 623);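 note: fluorescence intensity change per second fitted from 20 to 320 s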
- condition-set: Recombinant KvBeta, NADPH fluorescence decrease slope, 10 min; at 10 µM; stronger effect = lower value
Kindly supply the reported NADPH fluorescence slope values for the records listed here.
Numbers only.

{"columns": ["compound", "assay-system", "NADPH fluorescence slope"],
 "data": [
  ["Cc1noc(C(=O)Nc2ccc3c(c2)OCO3)c1Cl", "Voltage-gated potassium channel subunit beta-2 (Rattus norvegicus)", "-6.4e-05"],
  ["CC1CCc2c(sc(N)c2C(N)=O)C1 (stereo unspecified)", "Voltage-gated potassium channel subunit beta-2 (Rattus norvegicus)", "-1.7e-06"],
  ["CCOc1cccc(C(=O)N(Cc2ccc(F)cc2)C2CCS(=O)(=O)C2)c1 (stereo unspecified)", "Voltage-gated potassium channel subunit beta-2 (Rattus norvegicus)", "-3.8e-05"],
  ["CC(=O)NCC(=O)OCN1C(=O)c2ccccc2C1=O", "Voltage-gated potassium channel subunit beta-2 (Rattus norvegicus)", "7.5e-06"],
  ["Cc1cc2cc(CN(CCCN3CCOCC3)C(=O)NC3CCCCC3)c(=O)[nH]c2cc1C", "Voltage-gated potassium channel subunit beta-2 (Rattus norvegicus)", "6.2e-07"],
  ["O=C(NCCCn1ccnc1)c1cnn2c1NC(c1ccccc1)CC2C(F)(F)F (stereo unspecified)", "Voltage-gated potassium channel subunit beta-2 (Rattus norvegicus)", "3.1e-05"]
]}

Report NADPH fluorescence slope for every entry below.
1. CCCCSCCCNC(=O)CS(=O)Cc1nc(-c2cccc(C)c2)oc1C (stereo unspecified)
2. COc1ccc(Nc2ncc3c(n2)CC(c2ccc(OC)cc2)CC3=O)cc1 (stereo unspecified)
3. O=C(c1ccco1)N1CCN(C(=O)C2CC(c3ccc(F)cc3)=NO2)CC1 (stereo unspecified)
4. O=c1[nH]c2sc3c(c2c2nncn12)CCCC3
5. Cc1cc(C)cc(NC(=O)C2CCCN(S(=O)(=O)c3cnc[nH]3)C2)c1 (stereo unspecified)

Reply:
["1.3e-05", "-3.8e-05", "2.2e-07", -0.000261, "1.2e-05"]
